Values were extracted from patent EP2142646B1.

Molecular target: RuBisCO (Spinacia oleracea, UniProt P00870+P00875)
Construct: from tissue; host or cells: spinach
Sequence (P00870 whole entry, other chains not shown): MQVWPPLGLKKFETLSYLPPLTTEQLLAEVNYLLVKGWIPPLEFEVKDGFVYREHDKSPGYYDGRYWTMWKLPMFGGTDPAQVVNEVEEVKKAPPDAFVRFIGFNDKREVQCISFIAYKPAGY
Experiment: RuBisCO carboxylase assay (formation of acid-stable 14C product from NaH14CO3)
Assay type: biochemical, spinach
Conditions: molar ratio of steroid to enzyme 10:1; relative to reaction without steroid
Reported Property: Relative amount of product detected
Respond using a number only.

Notebook: CC(C)(O)CC[C@@H](O)[C@](C)(O)[C@H]1CC[C@@]2(O)C3=CC(=O)[C@@H]4C[C@@H](O)[C@@H](O)C[C@]4(C)[C@H]3CC[C@]12C [20-hydroxyecdysone] , Relative amount of product detected read as 1.13

Notebook: `CC(C)CC[C@@H](O)[C@](C)(O)[C@H]1CC[C@@]2(O)C3=CC(=O)[C@@H]4C[C@@H](O)[C@@H](O)C[C@]4(C)[C@H]3[C@H](O)C[C@]12C` , Relative amount of product detected read as 1.13

Notebook: CC(C)[C@@H](C)[C@@H](O)[C@H](O)[C@@H](C)[C@H]1CC[C@H]2[C@@H]3CC(=O)[C@H]4C[C@H](O)[C@H](O)C[C@]4(C)[C@H]3CC[C@]12C [24-epicastasterone] , Relative amount of product detected read as 1.20

Notebook: CC(C)[C@@H](C)[C@@H](O)[C@H](O)[C@@H](C)[C@H]1CC[C@H]2[C@@H]3COC(=O)[C@H]4C[C@H](O)[C@H](O)C[C@]4(C)[C@H]3CC[C@]12C [24-epibrassinolide] , Relative amount of product detected read as 1.10

Notebook: `CC(C)(O)CC[C@@H](O)[C@](C)(O)[C@H]1CC[C@@]2(O)C3=CC(=O)[C@]4(O)C[C@@H](O)[C@@H](O)C[C@]4(C)[C@H]3CC[C@]12C` , Relative amount of product detected read as 1.11
